assayed-system: T1, IL-2 receptor βγ complex (human, UniProt P14784 27-551; P31785 23-369)
T1 sequence (looked up) 1: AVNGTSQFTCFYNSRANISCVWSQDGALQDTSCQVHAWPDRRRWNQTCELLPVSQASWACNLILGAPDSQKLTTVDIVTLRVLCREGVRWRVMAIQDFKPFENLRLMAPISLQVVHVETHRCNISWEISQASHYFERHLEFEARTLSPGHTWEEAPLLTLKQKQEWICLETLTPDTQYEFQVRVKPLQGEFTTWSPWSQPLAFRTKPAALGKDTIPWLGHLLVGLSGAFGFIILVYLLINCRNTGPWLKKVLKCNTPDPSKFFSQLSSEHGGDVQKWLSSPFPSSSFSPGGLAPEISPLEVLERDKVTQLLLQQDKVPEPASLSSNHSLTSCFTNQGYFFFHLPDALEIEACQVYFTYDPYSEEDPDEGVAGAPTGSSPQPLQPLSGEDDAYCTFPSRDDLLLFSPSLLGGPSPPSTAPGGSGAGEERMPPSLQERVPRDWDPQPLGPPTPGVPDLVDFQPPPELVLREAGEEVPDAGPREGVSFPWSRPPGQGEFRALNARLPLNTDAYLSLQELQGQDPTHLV
T1 sequence (looked up) 2: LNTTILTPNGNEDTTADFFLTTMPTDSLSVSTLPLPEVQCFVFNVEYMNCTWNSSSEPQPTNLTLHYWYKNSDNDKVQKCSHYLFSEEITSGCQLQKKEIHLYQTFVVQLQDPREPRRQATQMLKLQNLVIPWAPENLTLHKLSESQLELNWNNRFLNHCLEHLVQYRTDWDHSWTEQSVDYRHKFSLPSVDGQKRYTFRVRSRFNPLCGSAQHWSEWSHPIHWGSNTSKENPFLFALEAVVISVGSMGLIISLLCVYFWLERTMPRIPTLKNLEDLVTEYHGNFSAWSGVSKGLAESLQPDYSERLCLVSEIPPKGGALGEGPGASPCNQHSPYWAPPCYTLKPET
protocol-details: cell-based or functional assay
Primed or numbered codes have the meaning given here. [ ]: non-standard residue; d: D form. Ygp = O-(8x polyethylene glycol-amino)-tyrosine (Tyr, amino-capped PEG8); Yn3 = O-(9x polyethylene glycol-azido)-tyrosine (Tyr, azide-capped PEG9); Ygp″ = O-(8x polyethylene glycol-amino)-tyrosine; Yn3″ = O-(9x polyethylene glycol-azido)-tyrosine; hSer = N[C@@H](CCO)C(=O)O; Nle = CCCC[C@H](N)C(=O)O

{"binder": "CMP-154, MMP2 cleaved molecule (ligand, not fully specified (bridges); also: MMP2 cleaved, site not given here) PLGLAGAPTSSSTKKTQLQLEHLLLDLQ[Nle]ILNGIENYKNPKLTR[Nle]L[hSer][Yn3″]KF[Ygp″][Nle]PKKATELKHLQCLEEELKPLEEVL[hSer]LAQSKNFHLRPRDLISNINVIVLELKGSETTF[hSer]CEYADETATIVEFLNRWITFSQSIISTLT", "Average EC50, pSTAT5 Assay (T cells) / nM": 4.2}
{"binder": "CMP-137, MMP2 cleaved molecule (ligand, ends and bridges not checked; also: cleaved by MMP2, cleavage product not defined, N-terminal PEG24 link and Glu29 side-chain attachment of the cleavable peptide not defined) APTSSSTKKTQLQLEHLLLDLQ[Nle]ILNGIENYKNPKLTR[Nle]L[hSer][Yn3]KF[Ygp][Nle]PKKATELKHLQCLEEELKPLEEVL[hSer]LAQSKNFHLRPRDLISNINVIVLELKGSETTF[hSer]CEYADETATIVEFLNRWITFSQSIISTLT", "Average EC50, pSTAT5 Assay (T cells) / nM": 4.09}
